- Experimental system: SpNbp2
- Measurement description: SPOT peptide array binding signal intensity (averaged, normalized) (arbitrary units (background-subtracted, floor 0; scale differs between SH3 domains)); higher = stronger binding of the SH3 domain to the peptide
Measured metric: SPOT peptide array binding signal intensity
Numbers only.

Example cases with answers are listed next.
KRKRFNLLLPKPYLT
492
KNPRRQLQIPRQQPS
53
MARRRLPDRPPNGIG
144

Okay, here is my list. What is SPOT peptide array binding signal intensity for each of these?
1. LTRRFPFLFPFDTRM
2. PKRRAPPPVPKKPSS

Outgoing:
69
38.5
